STUDY TARGET: human recombinant integrin αvβ6 (αv extracellular domain-acidic leucine zipper-His×6 with β6 extracellular domain-basic leucine zipper) (human) (UniProt P06756)
Sequence (P06756 other isoform, or with tags, fused parts or gaps, chain 1 of 2): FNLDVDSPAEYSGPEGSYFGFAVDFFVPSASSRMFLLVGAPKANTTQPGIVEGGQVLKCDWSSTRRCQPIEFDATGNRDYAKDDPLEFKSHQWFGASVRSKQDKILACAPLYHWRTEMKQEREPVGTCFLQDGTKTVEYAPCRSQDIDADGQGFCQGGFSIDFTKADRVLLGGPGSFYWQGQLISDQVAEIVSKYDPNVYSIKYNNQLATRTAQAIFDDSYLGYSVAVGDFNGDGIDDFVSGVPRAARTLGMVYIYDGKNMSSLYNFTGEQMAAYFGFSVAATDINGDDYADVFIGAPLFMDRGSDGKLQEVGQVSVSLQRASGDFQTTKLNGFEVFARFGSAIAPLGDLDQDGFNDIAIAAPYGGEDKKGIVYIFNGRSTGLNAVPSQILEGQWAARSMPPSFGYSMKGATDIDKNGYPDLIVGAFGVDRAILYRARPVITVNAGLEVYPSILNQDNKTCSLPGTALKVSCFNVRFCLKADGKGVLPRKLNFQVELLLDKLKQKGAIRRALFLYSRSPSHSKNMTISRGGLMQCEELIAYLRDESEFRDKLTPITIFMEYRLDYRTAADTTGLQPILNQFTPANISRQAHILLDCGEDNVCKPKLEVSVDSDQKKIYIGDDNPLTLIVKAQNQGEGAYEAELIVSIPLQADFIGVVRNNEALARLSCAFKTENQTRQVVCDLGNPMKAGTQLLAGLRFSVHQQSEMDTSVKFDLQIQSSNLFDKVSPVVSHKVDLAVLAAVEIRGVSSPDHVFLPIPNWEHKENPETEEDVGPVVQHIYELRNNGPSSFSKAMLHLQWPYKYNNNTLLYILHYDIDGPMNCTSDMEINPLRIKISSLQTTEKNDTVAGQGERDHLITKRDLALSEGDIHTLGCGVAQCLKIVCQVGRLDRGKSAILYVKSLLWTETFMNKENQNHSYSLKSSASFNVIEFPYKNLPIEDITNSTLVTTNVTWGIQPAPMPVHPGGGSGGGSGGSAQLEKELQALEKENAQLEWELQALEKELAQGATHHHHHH
Sequence (chain, as listed by the source, chain 2 of 2): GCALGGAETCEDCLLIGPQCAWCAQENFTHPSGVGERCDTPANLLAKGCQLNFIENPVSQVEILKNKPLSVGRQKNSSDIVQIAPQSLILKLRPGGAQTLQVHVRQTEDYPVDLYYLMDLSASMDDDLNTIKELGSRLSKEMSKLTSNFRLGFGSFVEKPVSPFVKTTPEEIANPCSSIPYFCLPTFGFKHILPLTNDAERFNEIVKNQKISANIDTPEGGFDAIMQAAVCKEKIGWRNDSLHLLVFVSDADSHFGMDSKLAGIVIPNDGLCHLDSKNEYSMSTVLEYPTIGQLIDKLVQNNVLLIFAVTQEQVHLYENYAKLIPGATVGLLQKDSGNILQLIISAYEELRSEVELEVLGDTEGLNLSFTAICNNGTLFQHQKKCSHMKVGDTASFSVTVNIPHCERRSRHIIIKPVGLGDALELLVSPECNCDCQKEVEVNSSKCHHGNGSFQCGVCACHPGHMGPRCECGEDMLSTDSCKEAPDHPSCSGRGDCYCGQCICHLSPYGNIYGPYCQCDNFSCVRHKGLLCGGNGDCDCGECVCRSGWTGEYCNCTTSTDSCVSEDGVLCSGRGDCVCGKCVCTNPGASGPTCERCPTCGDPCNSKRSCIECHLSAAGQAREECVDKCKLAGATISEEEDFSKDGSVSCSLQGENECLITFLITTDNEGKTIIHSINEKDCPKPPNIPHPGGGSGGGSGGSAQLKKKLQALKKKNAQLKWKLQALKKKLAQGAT
ASSAY TEXT: BLI (Octet), antibody captured on anti-human IgG Fc (AHC) biosensor, integrin αvβ6 3.1-100 nM as analyte, divalent cations
Threshold-based label: koff under 0.0002 s⁻¹ gives Condition met, koff not under 0.0002 s⁻¹ gives Condition not met.

Consider the following illustrative entries.
>  <BINDER>
6#6-Ras03 (antibody, part only; not given: RT22 heavy chain, light constant, V domains shown, not shown: another chain or arm of the molecule; a dimerising Fc or GST, chain 1: disulfide bond Cys6-Cys16 closes the cyclic peptide) VL: LGPLPCQTRGDLFSLCHYMGSSSNDIQMTQSPSSLSASVGDRVTITCKSSQSLLNSRDGKNYLAWYQQKPGKAPKLLIYWASTRESGVPSRFSGSGSGTDFTLTISSLQPEDFATYFCQQYWYWMYTFGQGTKVEIK

>  <ASSIGNED CLASS>
Condition met

$$$$
>  <BINDER>
6#2-Ras03 (antibody, part only; not given: RT22 heavy chain, constant regions, V domains shown, not shown: another chain or arm of the molecule; a dimerising Fc or GST; large carriers; small tags and cut ends, chain 1: disulfide bond Cys6-Cys16 closes the 6#2 cyclic peptide) VL: HVEFPCTRRGDLFVLCEGSMGSSSNDIQMTQSPSSLSASVGDRVTITCKSSQSLLNSRDGKNYLAWYQQKPGKAPKLLIYWASTRESGVPSRFSGSGSGTDFTLTISSLQPEDFATYFCQQYWYWMYTFGQGTKVEIK

>  <ASSIGNED CLASS>
Condition met

$$$$
>  <BINDER>
SFITGv6-Ras03 (antibody, part only; not given: RT22 heavy chain, constant regions, V domains shown, not shown: another chain or arm of the molecule; a dimerising Fc or GST; large carriers; small tags and cut ends, chain 1: disulfide bond Cys3-Cys13 closes the SFITGv6 cyclic peptide) VL: GRCTFRGDLMQLCYPDMGSSSNDIQMTQSPSSLSASVGDRVTITCKSSQSLLNSRDGKNYLAWYQQKPGKAPKLLIYWASTRESGVPSRFSGSGSGTDFTLTISSLQPEDFATYFCQQYWYWMYTFGQGTKVEIK

>  <ASSIGNED CLASS>
Condition met

$$$$

Ask: In the record for 6#8-Ras03 (antibody, part only; not given: RT22 heavy chain, light constant, V domains shown, not shown: another chain or arm of the molecule; a dimerising Fc or GST, chain 1: disulfide bond Cys6-Cys16 closes the cyclic peptide) VL: FPNNQCQHRGDLFALCADMGSSSNDIQMTQSPSSLSASVGDRVTITCKSSQSLLNSRDGKNYLAWYQQKPGKAPKLLIYWASTRESGVPSRFSGSGSGTDFTLTISSLQPEDFATYFCQQYWYWMYTFGQGTKVEIK , is koff less than 0.0002 s⁻¹?
Result: Condition met

Ask: In the record for in4-Ras03 (antibody, part only; not given: RT22 heavy chain, light constant, V domains shown, not shown: another chain or arm of the molecule; a dimerising Fc or GST, chain 1: disulfide bond Cys6-Cys10 closes the in4 cyclic peptide) VL: DGVRQCRGDCFDGPLMGSSSNDIQMTQSPSSLSASVGDRVTITCKSSQSLLNSRDGKNYLAWYQQKPGKAPKLLIYWASTRESGVPSRFSGSGSGTDFTLTISSLQPEDFATYFCQQYWYWMYTFGQGTKVEIK , is koff less than 0.0002 s⁻¹?
Result: Condition not met
